Origin of values: ChEMBL document CHEMBL3525964

Tested on: Plasma
Experiment: Drug level in human plasma treated with [14C}LY2452473 at 15 mg, po after 1 hr administered as single dose by HPLC analysis
Format: ADME, organism-based
Conditions: in vivo
Metric: Drug uptake (%)
Use % as the unit, but write only the number.

CC(C)OC(=O)N[C@H]1Cc2c(n(Cc3ccccn3)c3ccc(C#N)cc23)C1 [LY2452473]    74.5
CC(C)OC(=O)N[C@H]1Cc2c(n(Cc3ccccn3)c3ccc(C#N)cc23)[C@H]1O    21.9
C[C@@H](CO)OC(=O)N[C@H]1Cc2c(n(Cc3ccccn3)c3ccc(C#N)cc23)C1    0
C[C@H](CO)OC(=O)N[C@H]1Cc2c(n(Cc3ccccn3)c3ccc(C#N)cc23)C1    0

Now for another entry.
# Drug uptake (compound: CC(=O)N[C@H]1Cc2c(n(Cc3ccccn3)c3ccc(C#N)cc23)C1 ) is 0

###

Test system: Plasma
Assay: Drug level in human plasma treated with [14C}LY2452473 at 15 mg, po after 4 hrs administered as single dose by HPLC analysis relative to total radioactivity
Assay type: ADME, organism-based
Conditions: in vivo
# key: entry, value: Drug uptake

Consider the reported Drug uptake for these compounds:
CC(C)OC(=O)N[C@H]1Cc2c(n(Cc3ccccn3)c3ccc(C#N)cc23)C1    42.2%
CC(C)OC(=O)N[C@H]1Cc2c(n(Cc3ccccn3)c3ccc(C#N)cc23)[C@H]1O    34.7%
CC(=O)N[C@H]1Cc2c(n(Cc3ccccn3)c3ccc(C#N)cc23)C1    20.6%

Turning now to a further record.
Form: compound = C[C@H](CO)OC(=O)N[C@H]1Cc2c(n(Cc3ccccn3)c3ccc(C#N)cc23)C1 ; Drug uptake = 2.3%

###

System: Plasma
Experiment: Drug level in human plasma treated with [14C}LY2452473 at 15 mg, po after 48 hrs administered as single dose by HPLC analysis
Format: ADME, organism-based
Details: in vivo
Metric: Drug uptake (%)
Write the answer as a number in %, unit excluded.

// solved cases for Drug uptake follow
CC(C)OC(=O)N[C@H]1Cc2c(n(Cc3ccccn3)c3ccc(C#N)cc23)C1 [LY2452473]    27.67
C[C@@H](CO)OC(=O)N[C@H]1Cc2c(n(Cc3ccccn3)c3ccc(C#N)cc23)C1    0
CC(C)OC(=O)N[C@H]1Cc2c(n(Cc3ccccn3)c3ccc(C#N)cc23)[C@H]1O    30.05
C[C@H](CO)OC(=O)N[C@H]1Cc2c(n(Cc3ccccn3)c3ccc(C#N)cc23)C1    0

Bench note, Plasma: entry CC(=O)N[C@H]1Cc2c(n(Cc3ccccn3)c3ccc(C#N)cc23)C1 , its Drug uptake = 38.68

###

Test system: Plasma
Assay: Drug level in human plasma treated with [14C}LY2452473 at 15 mg, po after 2 hrs administered as single dose by HPLC analysis
Type: ADME, organism-based
Details: in vivo
# maps each entry to its Drug uptake

Some entries whose results are on file:
C[C@@H](CO)OC(=O)N[C@H]1Cc2c(n(Cc3ccccn3)c3ccc(C#N)cc23)C1    0%
CC(C)OC(=O)N[C@H]1Cc2c(n(Cc3ccccn3)c3ccc(C#N)cc23)[C@H]1O    22.58%
CC(C)OC(=O)N[C@H]1Cc2c(n(Cc3ccccn3)c3ccc(C#N)cc23)C1    72.93%
C[C@H](CO)OC(=O)N[C@H]1Cc2c(n(Cc3ccccn3)c3ccc(C#N)cc23)C1    0.89%

Please find the next compound below.
Please fill in: Drug uptake reported for CC(=O)N[C@H]1Cc2c(n(Cc3ccccn3)c3ccc(C#N)cc23)C1 = 0%
